Molecular target: ALK (Homo sapiens)
Construct: The plasmid pCDNA3.1_8×His-tev-ALK (kinase domain, 1068–1410) was constructed; 8xHis (N); TEV site (N); made in house; host or cells: Expi293 cells (transient transfection)
Sequence (Q9UM73 1068-1410): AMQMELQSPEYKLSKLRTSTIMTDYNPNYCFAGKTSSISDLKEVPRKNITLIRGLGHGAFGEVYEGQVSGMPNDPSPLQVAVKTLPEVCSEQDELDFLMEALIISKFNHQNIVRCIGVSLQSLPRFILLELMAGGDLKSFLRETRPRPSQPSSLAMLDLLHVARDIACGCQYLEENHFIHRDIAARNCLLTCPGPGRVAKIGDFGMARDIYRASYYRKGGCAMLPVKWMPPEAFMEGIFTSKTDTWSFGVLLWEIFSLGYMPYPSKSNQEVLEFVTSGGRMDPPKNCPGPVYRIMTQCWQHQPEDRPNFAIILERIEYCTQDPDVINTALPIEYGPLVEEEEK
Assay: ATP hydrolysis assay (Kinase-Glo) on ALK
Format: biochemical
Details: read-out: IC50 against ALK
Catalogue of IC50 readings, one per entry.

For orientation, consider the following solved cases.
>  <molecule>
COc1ccccc1Nc1ncnc(Nc2ccccc2S(=O)(=O)C(C)C)n1

>  <property_measured>
IC50

>  <assay_result>
0.532 µM

$$$$
>  <molecule>
COc1ncccc1Nc1ncnc(Nc2ccccc2S(=O)(=O)C(C)C)n1 [Compound 38a]

>  <property_measured>
IC50

>  <assay_result>
0.719 µM

$$$$
>  <molecule>
COc1ccc(OC)c(Nc2ncnc(Nc3ccccc3S(=O)(=O)CCNC(=O)[C@@H](N)CCCCN)n2)c1

>  <property_measured>
IC50

>  <assay_result>
> 109 µM

$$$$
>  <molecule>
COc1ccc(OC)c(Nc2ncnc(Nc3ccccc3S(=O)(=O)C(C)C)n2)c1

>  <property_measured>
IC50

>  <assay_result>
> 19.1 µM

$$$$
>  <molecule>
COc1ccc(OC)c(Nc2ncnc(Nc3ccccc3S(=O)(=O)CCCCCNC(=O)[C@@H](N)CCCCN)n2)c1

>  <property_measured>
IC50

>  <assay_result>
> 66.8 µM

$$$$

Continue with the molecule presented below.
# IC50 lookup, item COc1ccc(OC)c(Nc2ncnc(Nc3ccccc3S(=O)(=O)CCCNC(=O)[C@@H](N)CCCCN)n2)c1
> 74.4 µM

* * *

Target: PfLysRS (Plasmodium falciparum)
Construct: PfLysRS (77–583) was constructed in the vector pET20b, with a C-terminal 6×His tag; 6xHis (C); made in house; host or cells: E. coli BL21 (DE3)
Sequence (Q8IDJ8 entry or part of it): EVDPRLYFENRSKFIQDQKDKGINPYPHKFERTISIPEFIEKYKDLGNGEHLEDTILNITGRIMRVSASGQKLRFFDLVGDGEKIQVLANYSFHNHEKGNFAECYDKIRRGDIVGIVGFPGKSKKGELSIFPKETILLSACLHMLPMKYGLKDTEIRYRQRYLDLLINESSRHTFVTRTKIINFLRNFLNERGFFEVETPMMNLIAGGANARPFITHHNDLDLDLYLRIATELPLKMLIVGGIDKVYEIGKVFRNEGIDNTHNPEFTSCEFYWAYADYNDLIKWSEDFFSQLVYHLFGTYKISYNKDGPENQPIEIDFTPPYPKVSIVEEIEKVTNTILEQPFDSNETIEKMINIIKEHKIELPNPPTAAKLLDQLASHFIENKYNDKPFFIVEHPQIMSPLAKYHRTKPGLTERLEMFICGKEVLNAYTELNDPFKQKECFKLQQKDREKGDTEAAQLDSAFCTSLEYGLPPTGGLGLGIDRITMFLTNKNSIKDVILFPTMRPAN
Experiment: ATP hydrolysis assay (Kinase-Glo) on PfLysRS
Type: biochemical
Settings: PfLysRS
property_measured: HillSlope (best-fit value)
Answer with a bare number; do not write a unit.

For orientation, consider the following solved cases.
>  <compound>
COc1ccc(OC)c(Nc2ncnc(Nc3ccccc3S(=O)(=O)C(C)C)n2)c1 [Compound 36]

>  <measured_target>
PfLysRS (Plasmodium falciparum)

>  <assay_result>
1.442

$$$$
>  <compound>
COc1ncccc1Nc1ncnc(Nc2ccccc2S(=O)(=O)C(C)C)n1 [Compound 38a]

>  <measured_target>
PfLysRS (Plasmodium falciparum)

>  <assay_result>
0.6952

$$$$
>  <compound>
COc1ccccc1Nc1ncnc(Nc2ccccc2S(=O)(=O)C(C)C)n1 [Compound 38]

>  <measured_target>
PfLysRS (Plasmodium falciparum)

>  <assay_result>
0.6107

$$$$

Continue with the compound presented below.
# HillSlope (best-fit value) lookup, item COc1ccc(OC)c(Nc2ncnc(Nc3ccccc3S(=O)(=O)CCCNC(=O)[C@@H](N)CCCCN)n2)c1 [Compound 36K3]
1.065

* * *

Target: HsLysRS (Homo sapiens)
Construct: HsLysRS (70–581) was constructed in the vector pET20b with a C-terminal 6×His tag; 6xHis (C); made in house; host or cells: E. coli (pET20b; 'purified similarly' to PfLysRS, which was expressed in BL21 (DE3))
Sequence (Q15046 70-581): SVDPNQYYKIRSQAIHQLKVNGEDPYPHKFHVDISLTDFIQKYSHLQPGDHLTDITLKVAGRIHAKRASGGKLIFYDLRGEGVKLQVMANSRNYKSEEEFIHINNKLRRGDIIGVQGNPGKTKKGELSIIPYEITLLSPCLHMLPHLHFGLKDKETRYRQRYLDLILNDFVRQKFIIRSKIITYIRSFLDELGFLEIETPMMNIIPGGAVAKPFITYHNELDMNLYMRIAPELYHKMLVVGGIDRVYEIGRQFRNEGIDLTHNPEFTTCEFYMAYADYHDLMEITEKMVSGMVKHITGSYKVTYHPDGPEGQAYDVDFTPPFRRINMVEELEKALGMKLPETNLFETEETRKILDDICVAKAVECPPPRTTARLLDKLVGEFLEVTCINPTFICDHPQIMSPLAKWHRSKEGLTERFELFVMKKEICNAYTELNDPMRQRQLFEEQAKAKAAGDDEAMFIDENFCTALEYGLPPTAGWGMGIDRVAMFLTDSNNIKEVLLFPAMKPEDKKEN
Experiment: ATP hydrolysis assay (Kinase-Glo) on HsLysRS
Type: biochemical
Settings: read-out: IC50 against HsLysRS
property_measured: pIC50
Friendly reminder that pIC50 comes from taking -log10 of the concentration in mol/L.

>  <compound>
COc1cnc(OC)c(Nc2ncnc(Nc3ccccc3S(=O)(=O)C(C)C)n2)c1 [Compound 36a]

>  <property_measured>
pIC50

>  <assay_result>
4.36

$$$$
>  <compound>
COc1ncccc1Nc1ncnc(Nc2ccccc2S(=O)(=O)C(C)C)n1 [Compound 38a]

>  <property_measured>
pIC50

>  <assay_result>
4.08

$$$$

Continue with the compound presented below.
# pIC50 lookup, item COc1ccc(OC)c(Nc2ncnc(Nc3ccccc3S(=O)(=O)CCNC(=O)[C@@H](N)CCCCN)n2)c1
4.51

* * *

Target: PfLysRS (Plasmodium falciparum)
Construct: PfLysRS (77–583) was constructed in the vector pET20b, with a C-terminal 6×His tag; 6xHis (C); made in house; host or cells: E. coli BL21 (DE3)
Experiment: Thermal shift assay
Type: binding
Details: in the presence of L-lysine
property_measured: ΔTm at 200 µM

# ΔTm at 200 µM lookup, item COc1ccc(OC)c(Nc2ncnc(Nc3ccccc3S(=O)(=O)CCCNC(=O)[C@@H](N)CCCCN)n2)c1
12.8 °C

# ΔTm at 200 µM lookup, item COc1cccnc1Nc1ncnc(Nc2ccccc2S(=O)(=O)C(C)C)n1 [Compound 38b]
2 °C

# ΔTm at 200 µM lookup, item COc1ccccc1Nc1ncnc(Nc2ccccc2S(=O)(=O)C(C)C)n1
~9 °C

* * *

Biological target: HsLysRS (Homo sapiens)
Construct: HsLysRS (70–581) was constructed in the vector pET20b with a C-terminal 6×His tag; 6xHis (C); made in house; host or cells: E. coli (pET20b; 'purified similarly' to PfLysRS, which was expressed in BL21 (DE3))
Assay: ATP hydrolysis assay (Kinase-Glo) on HsLysRS
Format: biochemical
Conditions: read-out: IC50 against HsLysRS
property_measured: pIC50
Friendly reminder that pIC50 comes from taking -log10 of the concentration in mol/L.

>  <compound_string>
COc1ccc(OC)c(Nc2ncnc(Nc3ccccc3S(=O)(=O)CCCCCNC(=O)[C@@H](N)CCCCN)n2)c1

>  <measured_target>
HsLysRS (Homo sapiens)

>  <assay_result>
4.66

$$$$
>  <compound_string>
COc1ccccc1Nc1ncnc(Nc2ccccc2S(=O)(=O)C(C)C)n1

>  <measured_target>
HsLysRS (Homo sapiens)

>  <assay_result>
3.52

$$$$

Continue with the molecule presented below.
# pIC50 lookup, item COc1ccc(OC)c(Nc2ncnc(Nc3ccccc3S(=O)(=O)CCCNC(=O)[C@@H](N)CCCCN)n2)c1
4.92

* * *

Catalogue of Tm of PfLysRS, Average readings, one per entry.
Biological target: PfLysRS (Plasmodium falciparum)
Construct: PfLysRS (77–583) was constructed in the vector pET20b, with a C-terminal 6×His tag; 6xHis (C); made in house; host or cells: E. coli BL21 (DE3)
Assay: Thermal shift assay
Format: binding
Conditions: +Lysine, sheet Figure 6B; in °C (unit assumed)
Answer with a bare number; do not write a unit.

For orientation, consider the following solved cases.
>  <compound>
COc1ccc(OC)c(Nc2ncnc(Nc3ccccc3S(=O)(=O)C(C)C)n2)c1 [Compound 36]

>  <measured_target>
PfLysRS (Plasmodium falciparum)

>  <Tm of PfLysRS, Average>
55.664

$$$$
>  <compound>
COc1ccc(OC)c(Nc2ncnc(Nc3ccccc3S(=O)(=O)CCCNC(=O)[C@@H](N)CCCCN)n2)c1 [Compound 36K3]

>  <measured_target>
PfLysRS (Plasmodium falciparum)

>  <Tm of PfLysRS, Average>
57.818

$$$$
>  <compound>
COc1ccc(OC)c(Nc2ncnc(Nc3ccccc3S(=O)(=O)CCNC(=O)[C@@H](N)CCCCN)n2)c1 [Compound 36K2]

>  <measured_target>
PfLysRS (Plasmodium falciparum)

>  <Tm of PfLysRS, Average>
50.650

$$$$

Continue with the compound presented below.
# Tm of PfLysRS, Average lookup, item COc1ccc(OC)c(Nc2ncnc(Nc3ccccc3S(=O)(=O)CCCCCNC(=O)[C@@H](N)CCCCN)n2)c1 [Compound 36K5]
55.760

* * *

Biological target: PfLysRS (Plasmodium falciparum)
Construct: PfLysRS (77–583) was constructed in the vector pET20b, with a C-terminal 6×His tag; 6xHis (C); made in house; host or cells: E. coli BL21 (DE3)
Experiment: Thermal shift assay
Assay type: binding
Details: +Lysine
property_measured: Tm of PfLysRS, Average (°C)
Please respond with the number in °C and leave the unit unwritten.

# Tm of PfLysRS, Average lookup, item COc1ncccc1Nc1ncnc(Nc2ccccc2S(=O)(=O)C(C)C)n1 [Compound 38a]
48.001

# Tm of PfLysRS, Average lookup, item COc1cccnc1Nc1ncnc(Nc2ccccc2S(=O)(=O)C(C)C)n1 [Compound 38b]
42.100

# Tm of PfLysRS, Average lookup, item COc1ccccc1Nc1ncnc(Nc2ccccc2S(=O)(=O)C(C)C)n1
52.704

# Tm of PfLysRS, Average lookup, item COc1ccc(OC)c(Nc2ncnc(Nc3ccccc3S(=O)(=O)C(C)C)n2)c1
54.438

* * *

Assay: Cytotoxicity assay (CCK-8)
Assay type: cell-based, human
Conditions: human, HepG2 cells; HepG2, 72 h
property_measured: CC50 at 72 h (µM)
Please respond with the number in µM and leave the unit unwritten.

# CC50 at 72 h lookup, item COc1ccccc1Nc1ncnc(Nc2ccccc2S(=O)(=O)C(C)C)n1
7.7

Reference source for all entries: paper PMC11189516
